Where a name gives a salt, the structure may show the parent alone.
PROPERTY LABEL: melting point

Incoming: Which melting point reading was recorded for the compound Cc1nccn1CCC[n+]1ccn(C)c1C (as salt: triflate) [Compound 4] ?
Outgoing: 120 to 122 °C

Incoming: Which melting point reading was recorded for the compound Cc1nccn1CCC[n+]1ccn(C)c1C (as salt: bromide) [Compound 3] ?
Outgoing: 159 to 161 °C

Incoming: Which melting point reading was recorded for the compound Cc1n(C)cc[n+]1CCCBr (as salt: bromide) ?
Outgoing: 96 to 98 °C

Incoming: Which melting point reading was recorded for the compound Cc1n(C)cc[n+]1CCCn1cc[n+](CCCBr)c1C (as salt: triflate) [Compound 5] ?
Outgoing: 76 to 78 °C

Incoming: Which melting point reading was recorded for the compound Cc1n(C)cc[n+]1CCCn1cc[n+](CCCBr)c1C (as salt: bromide) [Compound 9] ?
Outgoing: 201 to 203 °C

Incoming: Which melting point reading was recorded for the compound Cc1n(C)cc[n+]1CCCn1cc[n+](CCCBr)c1C (as salt: triflate) [Compound 10] ?
Outgoing: 84 to 86 °C

Incoming: Which melting point reading was recorded for the compound Cc1nccn1CCC[n+]1ccn(CCC[n+]2ccn(C)c2C)c1C [Compound 6] ?
Outgoing: 121 to 123 °C

Incoming: Which melting point reading was recorded for the compound Cc1nccn1CCC[n+]1ccn(CCC[n+]2ccn(C)c2C)c1C [Compound 11] ?
Outgoing: 107 to 109 °C
